Values from PubChem BioAssay AID179

Test system: CEM cells HIV-1 protection, formazan growth assay
Assay: NCI AIDS Antiviral Assay
Settings: measured here: growth of uninfected CEM cells
property name: pIC50
Note: pIC50 values are expressed as the negative base-10 logarithm of concentration in M.

Query string: Find pIC50 (CEM cells HIV-1 protection, formazan growth assay) for the entry `OC(Cc1ccc2ccccc2n1)(C(F)(F)Cl)C(F)(F)Cl`
Result string: 4.09

Query string: Notebook: pull reported pIC50 for CEM cells HIV-1 protection, formazan growth assay, entry `C=C(c1ccccc1)c1ccccc1-c1cc(-c2ccccc2)cc(-c2ccccc2)n1`
Result string: 4.60

Query string: Tell me reported pIC50 for O=C(/C=C/c1ccc(O)c(O)c1)OCC(OC(=O)/C=C/c1ccc(O)c(O)c1)C(=O)O (stereo not given) , tested with CEM cells HIV-1 protection, formazan growth assay.
Result string: 4.55
